- method notes: PAX8 transcriptional activity inhibition in RMG-I – RMG-I cells, luciferase, single concentration, primary screen (AID 652154);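 also: luciferase light reporting Pax8 driven TPO promoter activity; plate controls were median of neutral control wells for no effect and mitoxantrone controls for full effect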
- conditions: RMG-I TPO-luciferase reporter, SteadyGlo, 24 h; at 12.6 µM; stronger effect = higher value
In all, about 360,000 compounds went through this assay and about 4,200 (1.2%) were called active. Only a selection was taken, and actives are over-represented in it overall.
parameter: inhibition (%)

smiles_input=CC(C)Cc1nnc(NC(=O)CCNC(=O)c2ccccc2Cl)s1 assay_result=-15.6
smiles_input=O=C(c1cccc(F)c1)N1CCCCN2[C@@H](CO)[C@H](c3ccc(-c4cncnc4)cc3)[C@@H]2C1 assay_result=2.95
smiles_input=C/C=C/c1ccc([C@@H]2[C@@H](CO)N(C(C)=O)[C@H]2CN(C)C(=O)CN(C)C)cc1 assay_result=0.935
smiles_input=COC(=O)C(CC#Cc1ccc2c(c1)[C@]1(C(=O)N2)[C@H](c2ccc(O)cc2)N2[C@H](c3ccccc3)[C@H](c3ccccc3)OC(=O)[C@H]2[C@@H]1C(=O)NC[C@H](O)c1ccccc1)C(=O)OC assay_result=-24.8
smiles_input=C[C@@H]1CN([C@@H](C)CO)C(=O)c2cc(-c3cncnc3)cnc2O[C@H]1CN(C)Cc1cncnc1 assay_result=-3.91
smiles_input=CC(C)Cc1nnc(NC(=O)CCc2ccccc2)s1 assay_result=-22.6
